Data origin: paper PMC3331960

Target: TIR1-IAA7 (Arabidopsis thaliana, UniProt Q38825+Q570C0)
Assay: [3H]-IAA radioligand binding
Conditions: Ki (Mean ± SEM), TIR1-IAA7, cold competitor vs [3H] IAA
MEASUREMENT_KIND: Ki (nM)

| COMPOUND | MEASUREMENT_KIND | REPORTED |
| --- | --- | --- |
| Nc1c(Cl)c(Cl)nc(C(=O)O)c1Cl [picloram] | Ki | 3900 |

* * *

Target: TIR1-IAA17 (Arabidopsis thaliana, UniProt P93830+Q570C0)
Assay: [3H]-IAA homologous competitive binding, TIR1-IAA17
Conditions: Kd (Mean ± SEM), TIR1-IAA17, homologous competition
pKd: −log10 of the molar value.
MEASUREMENT_KIND: pKd

| STRUCTURE_STRING | MEASURED_TARGET | REPORTED |
| --- | --- | --- |
| O=C(O)Cc1c[nH]c2ccccc12 | TIR1-IAA17 (Arabidopsis thaliana, UniProt P93830+Q570C0) | 7.48 |

* * *

Biological target: TIR1-IAA7 (Arabidopsis thaliana, UniProt Q38825+Q570C0)
Sequence (Q570C0 1-594): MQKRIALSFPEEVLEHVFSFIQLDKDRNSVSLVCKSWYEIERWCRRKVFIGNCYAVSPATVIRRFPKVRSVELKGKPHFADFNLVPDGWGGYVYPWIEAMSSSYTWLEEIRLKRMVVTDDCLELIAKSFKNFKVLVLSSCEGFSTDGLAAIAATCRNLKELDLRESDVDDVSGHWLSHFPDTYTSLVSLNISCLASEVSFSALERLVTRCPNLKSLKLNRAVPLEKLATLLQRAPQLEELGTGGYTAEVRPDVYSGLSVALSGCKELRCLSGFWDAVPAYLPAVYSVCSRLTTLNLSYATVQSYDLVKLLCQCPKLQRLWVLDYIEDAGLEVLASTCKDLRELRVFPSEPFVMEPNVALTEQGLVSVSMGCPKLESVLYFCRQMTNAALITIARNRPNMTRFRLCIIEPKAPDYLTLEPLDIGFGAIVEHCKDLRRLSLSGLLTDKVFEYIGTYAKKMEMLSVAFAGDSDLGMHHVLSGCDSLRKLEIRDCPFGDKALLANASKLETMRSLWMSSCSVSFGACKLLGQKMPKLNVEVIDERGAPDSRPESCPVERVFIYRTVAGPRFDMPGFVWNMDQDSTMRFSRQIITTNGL
Sequence (Q39255 1-160 partner): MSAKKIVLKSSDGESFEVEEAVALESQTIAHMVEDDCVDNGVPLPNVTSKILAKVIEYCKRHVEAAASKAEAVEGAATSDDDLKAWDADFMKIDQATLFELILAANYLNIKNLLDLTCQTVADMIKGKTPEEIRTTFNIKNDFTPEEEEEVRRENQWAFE
Sequence (Q38825 1-243): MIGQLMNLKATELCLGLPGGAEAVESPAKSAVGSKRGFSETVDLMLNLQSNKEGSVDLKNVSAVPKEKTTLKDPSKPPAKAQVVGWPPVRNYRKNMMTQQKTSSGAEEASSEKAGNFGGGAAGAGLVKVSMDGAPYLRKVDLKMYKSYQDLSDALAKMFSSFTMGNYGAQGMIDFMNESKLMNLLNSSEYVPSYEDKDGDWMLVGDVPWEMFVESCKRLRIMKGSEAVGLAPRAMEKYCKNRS
Test: [3H]-IAA radioligand binding

| STRUCTURE_STRING | Kd, nM |
| --- | --- |
| O=C(O)Cc1c[nH]c2ccccc12 | 17.8 |

* * *

Molecular target: TIR1-IAA3 (Arabidopsis thaliana, UniProt Q38822+Q570C0)
Test: [3H]-IAA saturation binding, TIR1-IAA3
Details: Kd (Mean ± SEM)
pKd: −log10 of the molar value.
MEASUREMENT_KIND: pKd

| STRUCTURE_STRING | MEASUREMENT_KIND | REPORTED |
| --- | --- | --- |
| O=C(O)Cc1c[nH]c2ccccc12 | pKd | 7.77 |

* * *

Target: TIR1-IAA12 GWPPVR (Arabidopsis thaliana, UniProt Q38830+Q570C0, G77R/I76V)
Sequence (Q570C0 1-594): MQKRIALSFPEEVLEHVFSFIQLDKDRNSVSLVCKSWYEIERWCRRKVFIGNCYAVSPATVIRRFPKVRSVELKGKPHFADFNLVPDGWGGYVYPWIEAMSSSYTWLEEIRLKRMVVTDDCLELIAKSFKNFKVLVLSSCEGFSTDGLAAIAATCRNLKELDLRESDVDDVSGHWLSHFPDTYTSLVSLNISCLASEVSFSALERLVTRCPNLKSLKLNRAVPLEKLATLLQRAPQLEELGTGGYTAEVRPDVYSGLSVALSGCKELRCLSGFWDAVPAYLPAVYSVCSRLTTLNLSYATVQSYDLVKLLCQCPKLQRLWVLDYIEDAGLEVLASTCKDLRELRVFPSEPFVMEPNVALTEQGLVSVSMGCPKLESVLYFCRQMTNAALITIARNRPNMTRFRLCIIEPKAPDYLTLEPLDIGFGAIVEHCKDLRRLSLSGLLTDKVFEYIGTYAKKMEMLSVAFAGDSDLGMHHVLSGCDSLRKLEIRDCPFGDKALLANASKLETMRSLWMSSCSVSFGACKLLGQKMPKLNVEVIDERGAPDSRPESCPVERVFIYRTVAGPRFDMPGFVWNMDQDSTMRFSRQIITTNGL
Sequence (Q39255 1-160 partner): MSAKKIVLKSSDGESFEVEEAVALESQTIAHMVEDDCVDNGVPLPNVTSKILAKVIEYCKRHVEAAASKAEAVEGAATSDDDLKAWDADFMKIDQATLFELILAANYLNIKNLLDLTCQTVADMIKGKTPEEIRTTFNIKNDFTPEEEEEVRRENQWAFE
Sequence (Q38830 1-239 I76V/G77R): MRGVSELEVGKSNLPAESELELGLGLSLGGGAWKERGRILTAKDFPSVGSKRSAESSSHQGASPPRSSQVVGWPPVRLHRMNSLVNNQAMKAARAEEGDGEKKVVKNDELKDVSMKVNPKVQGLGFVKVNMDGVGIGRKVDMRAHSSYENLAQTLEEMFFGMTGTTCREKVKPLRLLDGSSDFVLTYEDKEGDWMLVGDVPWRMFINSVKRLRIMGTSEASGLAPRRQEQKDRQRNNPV
Assay: [3H]-IAA saturation binding, TIR1-IAA12 GWPPVR
MEASUREMENT_KIND: Kd (nM)

| STRUCTURE_STRING | REPORTED |
| --- | --- |
| O=C(O)Cc1c[nH]c2ccccc12 | 72.5 |

* * *

Biological target: TIR1-DI-DII (Arabidopsis thaliana, UniProt Q38825+Q570C0)
Assay: [3H]-IAA saturation binding, TIR1-DI-DII

| STRUCTURE_STRING | UNIT_INFO | Kd |
| --- | --- | --- |
| O=C(O)Cc1c[nH]c2ccccc12 | µM | 0.0138 |

* * *

Target: TIR1-IAA14 (Arabidopsis thaliana, UniProt Q38832+Q570C0)
Sequence (Q570C0 1-594): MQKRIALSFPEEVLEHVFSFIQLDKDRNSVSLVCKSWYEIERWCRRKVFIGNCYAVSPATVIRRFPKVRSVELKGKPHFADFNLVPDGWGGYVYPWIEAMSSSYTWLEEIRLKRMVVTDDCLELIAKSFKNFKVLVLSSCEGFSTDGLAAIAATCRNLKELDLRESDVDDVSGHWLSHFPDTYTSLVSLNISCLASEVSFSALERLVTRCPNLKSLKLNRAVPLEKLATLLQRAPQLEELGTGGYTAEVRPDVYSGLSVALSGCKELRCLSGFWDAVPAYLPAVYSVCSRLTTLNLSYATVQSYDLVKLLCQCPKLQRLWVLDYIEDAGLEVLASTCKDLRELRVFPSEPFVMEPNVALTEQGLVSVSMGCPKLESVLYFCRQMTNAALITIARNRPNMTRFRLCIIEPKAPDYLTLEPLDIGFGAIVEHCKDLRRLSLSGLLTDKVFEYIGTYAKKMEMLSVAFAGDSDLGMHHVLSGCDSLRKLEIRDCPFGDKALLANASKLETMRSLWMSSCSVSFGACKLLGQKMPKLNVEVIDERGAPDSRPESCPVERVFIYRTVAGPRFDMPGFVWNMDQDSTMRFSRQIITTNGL
Sequence (Q39255 1-160 partner): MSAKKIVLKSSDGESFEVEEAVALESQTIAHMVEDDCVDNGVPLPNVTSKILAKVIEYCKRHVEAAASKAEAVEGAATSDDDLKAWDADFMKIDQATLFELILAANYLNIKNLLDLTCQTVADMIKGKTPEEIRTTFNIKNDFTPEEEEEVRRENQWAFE
Sequence (Q38832 1-228): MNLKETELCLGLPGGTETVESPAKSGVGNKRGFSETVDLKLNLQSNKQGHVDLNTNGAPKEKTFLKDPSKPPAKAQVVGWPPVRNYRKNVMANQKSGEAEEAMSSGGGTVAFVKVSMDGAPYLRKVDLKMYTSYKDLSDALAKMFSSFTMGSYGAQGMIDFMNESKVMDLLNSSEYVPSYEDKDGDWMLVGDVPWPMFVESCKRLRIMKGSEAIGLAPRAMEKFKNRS
Experiment: [3H]-IAA homologous competitive binding, TIR1-IAA14
Conditions: TIR1-IAA14, homologous competition
pKd: −log10 of the molar value.

| STRUCTURE_STRING | pKd |
| --- | --- |
| O=C(O)Cc1c[nH]c2ccccc12 | 8.00 |
